Reference for the values: patent US7192953B2

System: S. pneumoniae
Test: MIC by agar plate dilution against clinical isolates of S. pneumoniae
Type: cell-based
Conditions: Streptococcus pneumoniae, 6 strains of S. pneumoniae (clinical isolates), 18 to 24 hr, 35° C, read-out: MIC or MIC range, S. pneumoniae

# COMPOUND_STRUCTURE_STRING, MIC
rows = [
    ("COc1cccc(NC(=O)N2CCCN2C(=O)[C@H](CC2CCCC2)CN(O)C=O)c1", "4 to 8 µg/mL"),
    ("O=CN(O)C[C@@H](CC1CCCC1)C(=O)N1CCCCN1C(=O)Nc1ccc2c(c1)OCCO2", "2 to 4 µg/mL"),
    ("O=CN(O)C[C@@H](CC1CCCC1)C(=O)N1CCCCN1C(=O)c1ccncc1", "2 to 16 µg/mL"),
    ("COc1ccc(C(=O)N2CCCN2C(=O)[C@H](CC2CCCC2)CN(O)C=O)cc1", "4 to 16 µg/mL"),
]

* * *

Tested on: S. pneumoniae
Assay: MIC by agar plate dilution against clinical isolates of S. pneumoniae
Format: cell-based
Conditions: Streptococcus pneumoniae, 6 strains of S. pneumoniae (clinical isolates), 18 to 24 hr, 35° C, read-out: MIC or MIC range, S. pneumoniae
Parameter MIC: see the listing below.

# COMPOUND_STRUCTURE_STRING, MIC
measured = [
    ("O=CN(O)C[C@@H](CC1CCCC1)C(=O)N1CCCN1C(=O)Nc1ccccc1", "4 to 16 µg/mL"),
    ("O=CN(O)C[C@@H](CC1CCCC1)C(=O)N1CCCCN1C(=O)c1ccc2c(c1)OCO2", "0.5 to 4 µg/mL"),
    ("O=CN(O)C[C@@H](CC1CCCC1)C(=O)N1CCCN1C(=O)c1ccc(C(F)(F)F)cc1", "0.5 to 4 µg/mL"),
    ("O=CN(O)C[C@@H](CC1CCCC1)C(=O)N1CCCN1C(=O)Nc1ccc(C(F)(F)F)cc1", "2 to 8 µg/mL"),
]

* * *

Tested on: M. catarrhalis
Experiment: MIC by agar plate dilution against clinical isolates of M. catarrhalis
Assay type: cell-based
Conditions: Moraxella catarrhalis, 3 strains of M. catarrhalis (clinical isolates), 18 to 24 hr, 35° C, read-out: MIC or MIC range, M. catarrhalis
ASSAY_ENDPOINT: MIC (µg/mL)

# COMPOUND_STRUCTURE_STRING, REPORTED_VALUE
rows = [
    ("O=CN(O)C[C@@H](CC1CCCC1)C(=O)N1CCCN1C(=O)c1ccc2c(c1)OCO2", 0.125),
    ("O=CN(O)C[C@@H](CC1CCCC1)C(=O)N1CCCN1C(=O)C1CCCCC1", 0.06),
    ("O=CN(O)C[C@@H](CC1CCCC1)C(=O)N1CCCCN1C(=O)C1CCCCC1", 0.06),
    ("O=CN(O)C[C@@H](CC1CCCC1)C(=O)N1CCCCN1C(=O)c1ccccc1", 0.125),
    ("O=CN(O)C[C@@H](CC1CCCC1)C(=O)N1CCCN1C(=O)c1ccc(C(F)(F)F)cc1", 0.06),
    ("O=CN(O)C[C@@H](CC1CCCC1)C(=O)N1CCCCN1C(=O)Cc1ccccc1", 0.25),
    ("O=CN(O)C[C@@H](CC1CCCC1)C(=O)N1CCCCN1C(=O)c1ccncc1", 0.25),
    ("O=CN(O)C[C@@H](CC1CCCC1)C(=O)N1CCCCN1C(=O)c1ccc(C(F)(F)F)cc1", 0.5),
]
